A collection of compounds and their measured normalized growth
# assay name: chemical genetic growth profiling, strain panel (AID 1159580);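 note: tested at 20 µM; growth read once vehicle control cultures reached saturation at 30 °C; 1 = growth at the plate median or of vehicle wells; lower values mean less growth of the strain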
# applied conditions: S. cerevisiae deletion strains, growth OD, locus YNL233W, strain BNI4, hits give low values
In all, about 5,500 compounds went through this assay and about 2,000 (36%) were called active. Another 18% or so got no clear call; they are omitted. Some of the results follow.
# print the numeric value only

Record excerpt, results attached:
compound=OC(Cn1cncn1)(Cn1cncn1)c1ccc(F)cc1F data_value=1.01
compound="COc1cc2c(cc1OC)C1Cc3ccc(OC)c(OC)c3CN1CC2 (stereo unspecified)" data_value=1.02
compound="C[C@@H]1C(=O)OC2[C@H](O)C34[C@@H]5OC(=O)[C@@]3(O[C@@H]3OC(=O)[C@H](O)[C@@]34[C@H](C(C)(C)C)[C@H]5O)[C@]21O (stereo partly specified)" data_value=1
compound="O=C(C1CCCCC1)N1CC(=O)N2CCc3ccccc3C2C1 (stereo unspecified)" data_value=0.995
compound=COC(=O)C[C@H]1C(C)(C)C(=O)[C@@H]2CC3=C(CC[C@]4(C)C3=CC(=O)O[C@H]4c3ccoc3)[C@@]1(C)C2=O data_value=0.984

Field: next compound
Prompt line: Query: normalized growth; subject: CC(C)NCC(O)c1cc(O)cc(O)c1 (stereo unspecified)
Response line: 0.997

* * *

# assay name: chemical genetic growth profiling, strain panel (AID 1159580);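 note: tested at 20 µM; growth read once vehicle control cultures reached saturation at 30 °C; 1 = growth at the plate median or of vehicle wells; lower values mean less growth of the strain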
# applied conditions: S. cerevisiae deletion strains, growth OD, locus YNL071W, strain lat1, hits give low values
Out of some 5,500 compounds screened, about 2,000 (36%) were called active. Roughly 18% stayed inconclusive and do not appear here. The list shows a part of the results.
Listing of recorded normalized growth by entry.
// response body must contain only the number

Take a look at these entries with their results.
compound="CC(C)NCC(O)c1cc(O)cc(O)c1 (configuration not stated)" data_value=0.98
compound="C[N+]1(C)C2CC(OC(=O)[C@@H](CO)c3ccccc3)CC1C1OC12 (some centres not stated)" data_value=0.978

Prompt line: Which normalized growth value is on record for C#CCCCCCCCCCCCC(O)CC(O)CO (configuration not stated) ?
Response line: 0.988

Prompt line: For `CCOC(=O)Nc1nc2ccccc2[nH]1` , what is its reported normalized growth?
Response line: 0.985

Prompt line: For the compound CC(=O)OCC(OC(C)=O)C(OC(C)=O)C(OC(C)=O)C(OC(C)=O)C(COC(C)=O)OC(C)=O (configuration not stated) , what normalized growth is on record?
Response line: 0.99

Prompt line: Please report the recorded normalized growth for CO/N=C(\C(=O)NC1C(=O)N2C(C(=O)O)=C(COC(N)=O)CSC12)c1ccco1 (configuration not stated) .
Response line: 0.974

Prompt line: Reported normalized growth, compound `CCNC(=O)CC[C@H](N)C(=O)O` : ____
Response line: 1

Prompt line: Quick one: normalized growth of COc1cc2c(cc1OC)C1Cc3ccc(OC)c(OC)c3CN1CC2 (configuration not stated) ?
Response line: 0.974

Prompt line: I have this compound here, `CC(=O)OCC[C@H](C)CCC=C(C)C` , and I need its recorded normalized growth.
Response line: 0.989

Prompt line: Endpoint output: normalized growth of `COC(=O)C[C@H]1C(C)(C)C(=O)[C@@H]2CC3=C(CC[C@]4(C)C3=CC(=O)O[C@H]4c3ccoc3)[C@@]1(C)C2=O` . Value?
Response line: 0.972

Prompt line: # normalized growth lookup, item CC1C[C@H]2CC(=O)[C@H]3CCCN4CCC[C@H]2[C@]34C1 (some centres not stated)
Response line: 1.02

Prompt line: Need normalized growth, item CC1OC1P(=O)(O)O (configuration not stated)
Response line: 1

Data provenance: PubChem BioAssay AID1159580
